Source of measurements: paper PMC7499187

assay_protocol: Noncompartmental analysis of absolute bioavailability study JPBS
Assay type: in vivo, human
applied_conditions: human, plasma, oral, 200 mg

# molecular_string, Cmax [ng/mL]
measured = [
    ("CCN1CCN(Cc2ccc(Nc3ncc(F)c(-c4cc(F)c5nc(C)n(C(C)C)c5c4)n3)nc2)CC1", 114),
]

* * *

assay_protocol: Semimechanistic population PK model
Assay type: in vivo, human
applied_conditions: human, plasma, oral

# molecular_string, clearance [mL/min]
records = [
    ("CCN1CCN(Cc2ccc(Nc3ncc(F)c(-c4cc(F)c5nc(C)n(C(C)C)c5c4)n3)nc2)CC1", 380),
]
